- Test system: ZR-75-1 Tam1
- Assay notes: drug sensitivity score (DSS) (DSS (dimensionless)); higher = more sensitive; extreme values may be limits of the assay
- Experimental context: 4-OH-tamoxifen in medium 1 µM; 72 h
Quantity kind: drug sensitivity score

CC(=O)c1c(C)c2cnc(Nc3ccc(N4CCNCC4)cn3)nc2n(C2CCCC2)c1=O    1.11
N#CCNC(=O)c1ccc(-c2ccnc(Nc3ccc(N4CCOCC4)cc3)n2)cc1 [Momelotinib (CYT-387)]    0
Cn1c(=O)c(F)c(Nc2ccc(I)cc2F)c2c(=O)n(C[C@@H](O)CO)cnc21 [TAK-733]    0
NC1(c2ccc(-c3nc4ccn5c(=O)[nH]nc5c4cc3-c3ccccc3)cc2)CCC1 [MK-2206]    7.57

* * *

- Tested on: T-47D Tam1
- Assay notes: relative IC50 (midpoint of fitted logistic curve, plateau may be below 50% inhibition; CellTiter-Glo viability); higher = less potent
- Experimental context: 4-OH-tamoxifen in medium 1 µM; 72 h
Structures can show the parent of a compound that is named as a salt.
Quantity kind: relative IC50 (nM)

CO[C@H]1C[C@@H]2CC[C@@H](C)[C@@](O)(O2)C(=O)C(=O)N2CCCC[C@H]2C(=O)O[C@H]([C@H](C)C[C@@H]2CC[C@@H](OP(C)(C)=O)[C@H](OC)C2)CC(=O)[C@H](C)/C=C(\C)[C@@H](O)[C@@H](OC)C(=O)[C@H](C)C[C@H](C)/C=C/C=C/C=C/1C    2.06
CNC(=O)c1cc(Oc2ccc(NC(=O)Nc3ccc(Cl)c(C(F)(F)F)c3)c(F)c2)ccn1    370
NC1(c2ccc(-c3nc4ccn5c(=O)[nH]nc5c4cc3-c3ccccc3)cc2)CCC1    101
O=C(/C=C/c1cccnc1)NCCCCC1CCN(C(=O)c2ccccc2)CC1 [Daporinad (FK-866 HCl)]    3.87
Cn1c(=O)n(-c2ccc(C(C)(C)C#N)cc2)c2c3cc(-c4cnc5ccccc5c4)ccc3ncc21    7.44
O=c1[nH]c(=O)n([C@H]2C[C@H](O)[C@@H](CO)O2)cc1F    1390
CCN(CC)CCOc1ccc(C(=C(Cl)c2ccccc2)c2ccccc2)cc1 [Clomifene citrate]    1830
COC1=C2C[C@@H](C)C[C@H](OC)[C@H](O)[C@@H](C)/C=C(\C)[C@H](OC(N)=O)[C@@H](OC)/C=C\C=C(/C)C(=O)NC(=CC1=O)C2=O    235
CC[C@]1(O)C[C@H]2CN(CCc3c([nH]c4ccccc34)[C@@](C(=O)OC)(c3cc4c(cc3OC)N(C=O)[C@H]3[C@@](O)(C(=O)OC)[C@H](OC(C)=O)[C@]5(CC)C=CCN6CC[C@]43[C@@H]65)C2)C1    38.5
CC(=O)OC[C@H]1O[C@@H]([S-])[C@H](OC(C)=O)[C@@H](OC(C)=O)[C@@H]1OC(C)=O.CCP(CC)CC.[Au+]    65.3
COc1ncc(-c2ccc3nccc(-c4ccnnc4)c3c2)cc1NS(=O)(=O)c1ccc(F)cc1F    3.99
O=C(Nc1cccnc1)N1CCC(Cc2cccc(Oc3ccc(C(F)(F)F)cn3)c2)CC1    295
Cc1[nH]c2ccccc2c1CCNCc1ccc(/C=C/C(=O)NO)cc1    47.5
CCc1cncnc1N1CCN(Cc2nc3ccc(C(F)(F)F)cc3[nH]2)CC1    1570
COc1cc([C@@H]2c3cc4c(cc3[C@@H](O[C@@H]3O[C@@H]5CO[C@@H](C)O[C@H]5[C@H](O)[C@H]3O)[C@H]3COC(=O)[C@H]23)OCO4)cc(OC)c1O [Etoposide]    667
CC(C)n1nc(-c2ccc3oc(N)nc3c2)c2c(N)ncnc21    2.91

* * *

Consider the following compounds and their measured relative IC50 readings.
- System: ZR-75-1
- Assay notes: relative IC50 (midpoint of fitted logistic curve, plateau may be below 50% inhibition; CellTiter-Glo viability); higher = less potent
- Experimental context: 4-OH-tamoxifen in medium 0 µM; 72 h
Quantity kind: relative IC50

CO[C@H](C(=O)[C@@H](O)[C@@H](C)O)[C@@H]1Cc2cc3cc(O[C@H]4C[C@@H](O[C@@H]5C[C@@H](O)[C@H](O)[C@@H](C)O5)[C@H](O)[C@@H](C)O4)c(C)c(O)c3c(O)c2C(=O)[C@H]1O[C@H]1C[C@@H](O[C@@H]2C[C@@H](O)[C@@H](O[C@@H]3C[C@](C)(O)[C@H](O)[C@@H](C)O3)[C@@H](C)O2)[C@H](O)[C@@H](C)O1    0.0453 µM
CN1CCN(CCOc2cc(OC3CCOCC3)c3c(Nc4c(Cl)ccc5c4OCO5)ncnc3c2)CC1    > 10 µM
CC1(C)CCC(c2ccc(Cl)cc2)=C(CN2CCN(c3ccc(C(=O)NS(=O)(=O)c4ccc(N[C@H](CCN5CCOCC5)CSc5ccccc5)c(S(=O)(=O)C(F)(F)F)c4)cc3)CC2)C1    > 10 µM
CNC(=O)c1ccc(N2C(=S)N(c3ccc(C#N)c(C(F)(F)F)c3)C(=O)C2(C)C)cc1F [Enzalutamide (MDV 3100)]    > 10 µM
COc1cc2c(Oc3ccc4[nH]c(C)cc4c3F)ncnc2cc1OCCCN1CCCC1    > 1 µM

* * *

- System: ZR-75-1 Tam2
- Assay notes: drug sensitivity score (DSS) (DSS (dimensionless)); higher = more sensitive; extreme values may be limits of the assay
- Experimental context: 4-OH-tamoxifen in medium 1 µM; 72 h
Quantity kind: drug sensitivity score

Nc1ccccc1NC(=O)c1ccc(CNC(=O)OCc2cccnc2)cc1    0.992
CN(C)C/C=C/C(=O)Nc1cc2c(Nc3ccc(F)c(Cl)c3)ncnc2cc1O[C@H]1CCOC1    0
CN(N=O)C(=O)N[C@@H](C=O)[C@@H](O)[C@H](O)[C@H](O)CO    0
CC[C@@H]1C(=O)OC[C@@H]1Cc1cncn1C    0
NC(=O)c1cccc2cn(-c3ccc([C@@H]4CCCNC4)cc3)nc12    0

* * *

- System: MCF-7
- Assay notes: relative IC50 (midpoint of fitted logistic curve, plateau may be below 50% inhibition; CellTiter-Glo viability); higher = less potent
- Experimental context: 4-OH-tamoxifen in medium 0 µM; 72 h
Structures can show the parent of a compound that is named as a salt.
Is relative IC50 at least 200 nM? Then 1 (yes). If not, 0 (no).

Cc1cc2c(F)c(Oc3ncnn4cc(OC[C@@H](C)O)c(C)c34)ccc2[nH]1    1 (yes)
Oc1nc(-c2ccc(C(F)(F)F)cc2)nc2c1CSCC2    1 (yes)
CNC(=O)c1cc(Oc2ccc(NC(=O)Nc3ccc(Cl)c(C(F)(F)F)c3)cc2)ccn1    1 (yes)
CS(=O)(=O)c1ccc(C(=O)Nc2ccc(Cl)c(-c3ccccn3)c2)c(Cl)c1    1 (yes)
Nc1nc(Cl)nc2c1ncn2[C@@H]1O[C@H](CO)[C@@H](O)[C@@H]1F    1 (yes)
CN(C)C/C=C/C(=O)Nc1cc2c(Nc3ccc(F)c(Cl)c3)ncnc2cc1O[C@H]1CCOC1    1 (yes)
COCC[n+]1c2c(n(Cc3cnccn3)c1C)C(=O)c1ccccc1C2=O    0 (no)
C[C@]1(c2nc3c(C(N)=O)cccc3[nH]2)CCCN1    1 (yes)
Nc1ccccc1NC(=O)c1ccc(CNC(=O)OCc2cccnc2)cc1    1 (yes)
N#CC[C@H](C1CCCC1)n1cc(-c2ncnc3[nH]ccc23)cn1    1 (yes)
COc1cc(CCc2cc(NC(=O)c3ccc(N4CC(C)NC(C)C4)cc3)n[nH]2)cc(OC)c1 (configuration not stated)    1 (yes)
Cc1ccc([N+](=O)[O-])cc1S(=O)(=O)N(C)/N=C/c1cnc2ccc(Br)cn12 [PIK-75 (HCl)]    0 (no)
C=C(c1ccc(C(=O)O)cc1)c1cc2c(cc1C)C(C)(C)CCC2(C)C    1 (yes)
COc1cccc2cc(-c3nc([C@H]4CC[C@H](C(=O)O)CC4)n4ncnc(N)c34)[nH]c12    1 (yes)
Nc1nc(Cl)nc2c1ncn2[C@H]1C[C@H](O)[C@@H](CO)O1    1 (yes)
Nc1ccn([C@@H]2O[C@H](CO)[C@@H](O)[C@@H]2O)c(=O)n1    1 (yes)
CCCCCOC(=O)Nc1nc(=O)n([C@@H]2O[C@H](C)[C@@H](O)[C@H]2O)cc1F    1 (yes)
NCC(=O)CCC(=O)O    1 (yes)
S=P(N1CC1)(N1CC1)N1CC1    1 (yes)
CO[C@H]1C[C@@H]2CC[C@@H](C)[C@@](O)(O2)C(=O)C(=O)N2CCCC[C@H]2C(=O)O[C@H]([C@H](C)C[C@@H]2CC[C@@H](OP(C)(C)=O)[C@H](OC)C2)CC(=O)[C@H](C)/C=C(\C)[C@@H](O)[C@@H](OC)C(=O)[C@H](C)C[C@H](C)/C=C/C=C/C=C/1C    0 (no)
CC1(C)NC(=O)N(c2ccc([N+](=O)[O-])c(C(F)(F)F)c2)C1=O [Nilutamide]    1 (yes)
CC[C@]1(O)C[C@H]2CN(CCc3c([nH]c4ccccc34)[C@@](C(=O)OC)(c3cc4c(cc3OC)N(C=O)[C@H]3[C@@](O)(C(=O)OC)[C@H](OC(C)=O)[C@]5(CC)C=CCN6CC[C@]43[C@@H]65)C2)C1    0 (no)
COc1c2occc2cc2ccc(=O)oc12    1 (yes)
Cn1c(Nc2ccc(C(F)(F)F)cc2)nc2cc(Oc3ccnc(-c4ncc(C(F)(F)F)[nH]4)c3)ccc21    1 (yes)
CC(C)(C)NC(=O)[C@H]1CC[C@H]2[C@@H]3CC[C@H]4NC(=O)C=C[C@]4(C)[C@H]3CC[C@]12C [Finasteride]    1 (yes)
OC[C@H]1O[C@@H](n2cnc3c2N=CNC[C@H]3O)C[C@@H]1O    1 (yes)
O=C(CCCCCCC(=O)Nc1ccccc1)NO    1 (yes)
CS(=O)(=O)OCCCCOS(C)(=O)=O    1 (yes)
COc1cccc2c1C(=O)c1c(O)c3c(c(O)c1C2=O)C[C@@](O)(C(=O)CO)C[C@@H]3O[C@H]1C[C@H](N)[C@H](O)[C@H](C)O1    1 (yes)
COc1cccc2c1C(=O)c1c(O)c3c(c(O)c1C2=O)C[C@@](O)(C(C)=O)C[C@@H]3O[C@H]1C[C@H](N)[C@H](O)[C@H](C)O1    1 (yes)
N#Cc1ccc(C(c2ccc(C#N)cc2)n2cncn2)cc1    1 (yes)
CC(=O)[C@]1(O)Cc2c(O)c3c(c(O)c2[C@@H](O[C@H]2C[C@H](N)[C@H](O)[C@H](C)O2)C1)C(=O)c1ccccc1C3=O    0 (no)
